tested on: LXFL 529; assay: NCI tumour cell line growth inhibition, 48 h
Active and inactive are the calls of the source. No stated cut-off is given here; in the data, active = GI50 up to about 1.1 µM and inactive = higher.
Possible outcomes: active, inactive

molecule | assigned_class
COC(=O)C1[C@H](c2cc(OC)c(OC)c(OC)c2)OC(=O)C1(C(=O)OC)C(=O)c1ccc2c(c1)OCO2 (some centres not stated) | inactive
O=S1(=O)C[C@H](O)[C@H](O)CS1 | inactive
Cc1cccc(NC2=NC(=O)C(CC(=O)Nc3ccccc3Cl)S2)c1 (configuration not stated) | inactive
CCCC(C(=O)OC)C1N/C(=N/C#N)N(Cc2ccccc2)C1=O (configuration not stated) | inactive
CC1=C(C(=O)CC(=O)C(=O)Nc2cccc(C)c2C)Sc2ccccc2N1 | inactive
O=C/C(=C(/Cl)c1ccc(O)cc1)c1ccccc1 | inactive
COc1ccc(N2C(=O)C3c4[nH]c5ccccc5c4C4CC(C)CC(C)C4C3C2=O)cc1 (configuration not stated) | inactive
CC[P+]1(c2ccccc2)CCCCC1 | inactive
O=C1NC(=O)/C(=N\c2cccc3c(=O)[nH][nH]c(=O)c23)C(c2nc3ccccc3s2)C1=O (configuration not stated) | inactive
OCc1ccc(-c2ccc(-c3ccc(CO)s3)o2)s1 | active
Nc1ccccc1N | inactive
CC1=C(C(=O)NNS(=O)(=O)c2ccc(C)cc2)CC(C(=O)NNS(=O)(=O)c2ccc(C)cc2)=C(C)N1 | inactive
CCn1cc(/C=C/C(C)c2cn(CC)c(=O)[nH]c2=O)c(=O)[nH]c1=O (configuration not stated) | inactive
N#CC12Cc3cc4c(cc3-c3cccc(c31)CCN2C(=O)c1ccccc1)OCO4 (configuration not stated) | inactive
Cc1ccccc1NC(=O)CC(=O)NNCC(=O)Nc1nnc(-c2ccccc2)s1 | inactive
CCN(CC)CCC1(C2CCCCC2)CCC(=O)NC1=O (configuration not stated) | inactive
CCNC(=O)N(CC)CN(CC)C(=O)NCC | inactive
Cc1c(N)nc([C@H](CC(N)=O)NC[C@H](N)C(N)=O)nc1C(=O)N[C@H](C(=O)N[C@H](C)[C@@H](O)[C@H](C)C(=O)N[C@H](C(=O)NCCc1nc(-c2nc(C(=O)NCCC[S+](C)C)cs2)cs1)[C@@H](C)O)C(OC1OC(CO)C(O)C(O)C1OC1OC(CO)C(O)C(OC(N)=O)C1O)c1c[nH]cn1 (some centres not stated) | inactive
CN(C)c1ccc(-c2cc(O)c3ccccc3n2)cc1 | inactive
CC1(C)OCN(c2ccc(Cl)cc2)Cn2c1nc1ccccc12 | inactive
O=C1CC(C2(O)C(=O)Nc3ccc([N+](=O)[O-])cc32)c2ccccc21 (configuration not stated) | inactive
N#CC12CC3(CCC1CCC1(C2)OCCO1)OCCO3 (configuration not stated) | inactive
